biological target: dopaminergic receptors D2 (Homo sapiens, UniProt P14416); test: Radioligand binding assay, dopaminergic D2 receptors; conditions: binding assay, test compound 1×10^−6 M
Sequence (P14416 whole entry): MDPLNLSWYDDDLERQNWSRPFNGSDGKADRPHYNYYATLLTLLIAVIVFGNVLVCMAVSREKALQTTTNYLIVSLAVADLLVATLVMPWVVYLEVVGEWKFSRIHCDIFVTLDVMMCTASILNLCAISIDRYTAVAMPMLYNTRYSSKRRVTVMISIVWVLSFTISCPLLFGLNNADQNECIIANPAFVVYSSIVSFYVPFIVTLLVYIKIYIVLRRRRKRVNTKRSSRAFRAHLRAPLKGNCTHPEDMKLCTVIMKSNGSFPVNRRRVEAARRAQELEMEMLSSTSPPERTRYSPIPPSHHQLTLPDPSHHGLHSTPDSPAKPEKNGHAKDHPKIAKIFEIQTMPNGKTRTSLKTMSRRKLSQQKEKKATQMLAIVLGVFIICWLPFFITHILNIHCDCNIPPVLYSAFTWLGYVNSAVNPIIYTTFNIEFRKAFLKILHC
property_measured: D2 [%]
The answer consists of two parts: a number and, after it, its unit.

Consider the worked cases shown below.
compound	D2 [%]
CC1(C)Cc2cccc(OCCN3CCC(NS(=O)(=O)c4ccc5ccccc5c4)CC3)c2O1 [Compound 110]	74%
Cc1cccc(S(=O)(=O)NC2CN(CCOc3cccc4c3OCCO4)C2)c1 [Compound 93]	78%
Cc1cccc(S(=O)(=O)NCC2CCN(CCCc3noc4cc(F)ccc34)CC2)c1 [Compound 36]	57%
O=S(=O)(NC1CCN(CCOc2cccc3c2OCCO3)C1)c1cccc2ccccc12 (stereo not shown) [Compound 98]	62%
O=S(=O)(NC1CCN(CCOc2cccc3c2OCCO3)CC1)c1cccc2ccccc12 [Compound 100]	41%

INPUT: Form field: reported D2 [%] of O=S(=O)(NC1CCN(CCOc2cccc3[nH]ccc23)CC1)c1ccccc1 [Compound 55]
OUTPUT: 44%

INPUT: What about O=S(=O)(NC1CCN(CCOc2cccc3[nH]ccc23)CC1)c1ccc2ccccc2c1 [Compound 61] ?
OUTPUT: 39%

* * *

Below, each entry is listed with its recorded D3 [%].
target: UniProtKB P35462; assay: Radioligand binding assay, dopaminergic D3 receptors; conditions: test compound 1×10^−6 M
Give the quantity in %, number only.

Please review the following examples before continuing.
compound	recorded_result
O=S(=O)(NC1CN(CCOc2cccc3c2OCCO3)C1)c1ccccc1 [Compound 88]	−2
O=S(=O)(NC1CCN(CCCc2noc3cc(F)ccc23)CC1)c1ccc2ccccc2c1 [Compound 35]	56
O=S(=O)(NCC1CCN(CCCc2noc3cc(F)ccc23)CC1)c1ccc2ccccc2c1 [Compound 38]	64

INPUT: Form: Entry = O=S(=O)(NC1CCN(CCOc2cccc3ccccc23)C1)c1cccc(O)c1 (centres unmarked) [Compound 115] | System = UniProtKB P35462 | D3 [%] = ____
OUTPUT: 97

INPUT: Request: O=S(=O)(NC1CCN(CCCc2noc3cc(F)ccc23)CC1)c1ccccc1 [Compound 32]
OUTPUT: 57

* * *

molecular target: D3 dopaminergic receptors (Homo sapiens); assay: Cellular functional assay, D3 dopaminergic receptors; assay type: cell-based; conditions: antagonism, D3 (h), CHO cells, stimulus dopamine (10 nM)
Sequence (P35462 whole entry): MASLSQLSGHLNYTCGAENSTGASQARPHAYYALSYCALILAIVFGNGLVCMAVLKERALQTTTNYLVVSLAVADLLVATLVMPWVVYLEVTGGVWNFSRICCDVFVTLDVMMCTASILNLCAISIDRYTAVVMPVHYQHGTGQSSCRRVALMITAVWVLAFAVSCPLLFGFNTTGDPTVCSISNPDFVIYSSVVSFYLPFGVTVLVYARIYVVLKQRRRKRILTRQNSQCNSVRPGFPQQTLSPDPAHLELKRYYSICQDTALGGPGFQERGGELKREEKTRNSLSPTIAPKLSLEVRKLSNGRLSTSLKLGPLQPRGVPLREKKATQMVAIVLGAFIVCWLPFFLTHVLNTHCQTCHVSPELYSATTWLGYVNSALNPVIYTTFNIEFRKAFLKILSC
property_measured: D3 antag [%]

compound	recorded_result
COc1ccc2cc(S(=O)(=O)N[C@H]3CCN(CCCc4noc5cc(F)ccc45)C3)ccc2c1	54%
Cc1c(S(=O)(=O)NCC2CN(CCCc3noc4cc(F)ccc34)C2)sc2ccc(F)cc12	61%
O=S(=O)(NC1CCN(CCCc2noc3cc(F)ccc23)C1)c1ccc2cc(Cl)ccc2c1 (stereo not shown)	68%

INPUT: I am curious: what D3 antag [%] value has been reported for Cc1c(S(=O)(=O)NC2CCN(CCCc3noc4cc(F)ccc34)C2)sc2ccc(F)cc12 (stereo not shown) ?
OUTPUT: 74%

* * *

Collected inhibition at 1 µM values appear next to each entry.
Target: 5-HT2C receptor (Homo sapiens, UniProt P28335)
Construct: expressed in transfected cells; host or cells: HEK-293 cells
Sequence (P28335 33-458): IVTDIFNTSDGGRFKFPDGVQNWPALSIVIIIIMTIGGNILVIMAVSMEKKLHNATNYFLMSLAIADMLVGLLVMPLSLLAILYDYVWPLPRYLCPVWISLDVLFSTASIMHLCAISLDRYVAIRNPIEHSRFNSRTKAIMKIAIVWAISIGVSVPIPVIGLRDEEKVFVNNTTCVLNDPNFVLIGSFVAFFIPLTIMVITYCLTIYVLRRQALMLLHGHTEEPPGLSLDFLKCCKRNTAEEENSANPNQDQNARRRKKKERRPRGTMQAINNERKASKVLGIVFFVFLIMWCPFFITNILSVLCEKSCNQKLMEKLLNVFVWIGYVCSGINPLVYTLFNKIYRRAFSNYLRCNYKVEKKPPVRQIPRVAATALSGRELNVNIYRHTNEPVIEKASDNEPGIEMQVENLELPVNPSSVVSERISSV
Experiment: Radioligand binding assay, serotoninergic 5-HT2C receptors
Conditions: test compound 1×10^−6 M
Report the value in % with no unit label.

compound	target_of_assay	property_measured	recorded_result
O=S(=O)(NCC1CCN(CCOc2cccc3ccccc23)C1)c1ccc2ccccc2c1 (stereo not drawn) [Compound 124]	5-HT2C receptor (Homo sapiens, UniProt P28335)	inhibition at 1 µM	80
Cc1cc(S(=O)(=O)N[C@H]2CCN(CCCc3noc4cc(F)ccc34)C2)c(C)s1 [Compound 223]	5-HT2C receptor (Homo sapiens, UniProt P28335)	inhibition at 1 µM	65
O=S(=O)(NC1CCN(CCCc2noc3cc(F)ccc23)C1)c1cc2ccccc2o1 (stereo not drawn) [Compound 216]	5-HT2C receptor (Homo sapiens, UniProt P28335)	inhibition at 1 µM	62
O=S(=O)(NCC1CCN(CCCc2noc3cc(F)ccc23)C1)c1cccc2ccccc12 (stereo not drawn) [Compound 239]	5-HT2C receptor (Homo sapiens, UniProt P28335)	inhibition at 1 µM	49
O=S(=O)(NC1CCN(CCCc2c[nH]c3ccc(F)cc23)C1)c1ccc(Cl)cc1 (stereo not drawn) [Compound 77]	5-HT2C receptor (Homo sapiens, UniProt P28335)	inhibition at 1 µM	77
O=S(=O)(NCC1CN(CCCc2noc3cc(F)ccc23)C1)c1cc2ccccc2s1 [Compound 127]	5-HT2C receptor (Homo sapiens, UniProt P28335)	inhibition at 1 µM	84
Cc1c(S(=O)(=O)NCC2CN(CCCc3noc4cc(F)ccc34)C2)sc2ccc(F)cc12 [Compound 130]	5-HT2C receptor (Homo sapiens, UniProt P28335)	inhibition at 1 µM	89
CC1(C)Cc2cccc(OCCN3CCC(NS(=O)(=O)c4cccc(O)c4)C3)c2O1 (stereo not drawn) [Compound 107]	5-HT2C receptor (Homo sapiens, UniProt P28335)	inhibition at 1 µM	86

Would you kindly look at the next entry?
INPUT: Which inhibition at 1 µM is reported for this compound? O=S(=O)(NCC1CCN(CCCc2noc3cc(F)ccc23)C1)c1ccc2cc(Cl)ccc2c1 (stereo not drawn) [Compound 237]
OUTPUT: 79

* * *

// endpoint Ki / system 5-HT6 receptor (Homo sapiens)
Reply numerically in nM, unit not repeated.

compound	result_units	Ki
Cc1c(S(=O)(=O)NCC2CN(CCCc3noc4cc(F)ccc34)C2)sc2ccc(Cl)cc12	nM	9

INPUT: Hello, I am looking for reported Ki with 5-HT6 receptor (Homo sapiens) for Cc1c(S(=O)(=O)N[C@H]2CCN(CCCc3noc4cc(F)ccc34)C2)sc2ccc(Cl)cc12 . Could you help?
OUTPUT: 41

INPUT: Consider next the compound Cc1ccc2sc(S(=O)(=O)N[C@H]3CCN(CCCc4noc5cc(F)ccc45)C3)cc2c1 in the same way.
OUTPUT: 43

INPUT: What do you get for O=S(=O)(NC1CCN(CCCc2c[nH]c3ccc(Cl)cc23)C1)c1cccc(F)c1 (centres unmarked) ?
OUTPUT: 37

INPUT: Consider next the compound O=S(=O)(N[C@H]1CCN(CCCc2noc3cc(F)ccc23)C1)c1cc2ccc(Cl)cc2s1 in the same way.
OUTPUT: 99

INPUT: And for Cc1c(S(=O)(=O)NCC2CCN(CCCc3noc4cc(F)ccc34)C2)sc2ccc(Cl)cc12 (centres unmarked) ?
OUTPUT: 17

INPUT: Here is the next compound: O=S(=O)(N[C@H]1CCN(CCCc2noc3cc(F)ccc23)C1)c1ccc2cc(Cl)ccc2c1
OUTPUT: 79

INPUT: Now the same for O=S(=O)(NC1CCN(CCCc2c[nH]c3ccc(Cl)cc23)C1)c1cccc(Cl)c1 (centres unmarked)
OUTPUT: 18

INPUT: Now give it for O=S(=O)(N[C@@H]1CCN(CCCc2noc3cc(F)ccc23)C1)c1csc2ccccc12 too.
OUTPUT: 4

INPUT: Moving on to the next compound: O=S(=O)(NC1CCN(CCCc2c[nH]c3ccc(F)cc23)C1)c1ccc(Cl)cc1 (centres unmarked)
OUTPUT: 39

INPUT: For O=S(=O)(N[C@H]1CCN(CCCc2noc3cc(F)ccc23)C1)c1ccc2ccccc2c1 then?
OUTPUT: 7.7

INPUT: // query: O=S(=O)(N[C@H]1CCN(CCCc2noc3cc(F)ccc23)C1)c1cc2ccccc2o1
OUTPUT: 21

INPUT: Another compound to check: O=S(=O)(N[C@@H]1CCN(CCCc2noc3cc(F)ccc23)C1)c1ccc2cc(Cl)ccc2c1
OUTPUT: 10

INPUT: Another: O=S(=O)(N[C@H]1CCN(CCCc2noc3cc(F)ccc23)C1)c1csc2ccccc12
OUTPUT: 1.6

INPUT: Check COc1ccc2cc(S(=O)(=O)N[C@@H]3CCN(CCCc4noc5cc(F)ccc45)C3)ccc2c1 too.
OUTPUT: 15

INPUT: And then O=S(=O)(N[C@@H]1CCN(CCCc2noc3cc(F)ccc23)C1)c1cc2ccccc2o1 , what is it?
OUTPUT: 7.5

INPUT: Next entry: Cc1c(S(=O)(=O)N[C@H]2CCN(CCCc3noc4cc(F)ccc34)C2)sc2ccc(F)cc12
OUTPUT: 12
